Origin of measurements: patent US20250114460A1

For each entry below, report its IC50 value.
# System: NCI-H526 cell line
# procedureText: Cell viability assay for H526 cell (EZ-Cytox)
# Format: cell-based
# assayContext: Homo sapiens, NCI-H526, 120 h; H526 cells, 5 days, 3000 nM to 0.46 nM

COc1cc(C(=O)N[C@H]2CC[C@H](N(C)CCN3CCN(c4cccc5c4C(=O)N(C4CCC(=O)NC4=O)C5=O)CC3)CC2)ccc1Nc1ncc2c(n1)N(C1CCCC1)CC(F)(F)C(=O)N2C (some centres unmarked) [Compound 129]: < 30 nM

Please give IC50 for each item listed below.
1. COc1cc(C(=O)NN2CCC(N3CC4(CCN(c5cc6c(cc5F)C(=O)N(C5CCC(=O)NC5=O)C6=O)CC4)C3)CC2)c(F)cc1Nc1ncc2c(n1)N(C(C)C)CC(F)(F)C(=O)N2C (centres unmarked) [Compound 217]
2. COc1cc(C(=O)NC2CCN(C(=O)CCN3CCN(c4cccc5c4C(=O)N(C4CCC(=O)NC4=O)C5=O)CC3)CC2)c(C(F)(F)F)cc1Nc1ncc2c(n1)N(C1CCCC1)CC(F)(F)C(=O)N2C (centres unmarked) [Compound 119]
3. COc1cc(C(=O)NN2CCC(CN3CCN(c4ccc5c(c4)C(=O)N(C4CCC(=O)NC4=O)C5=O)CC3)CC2)ccc1Nc1ncc2c(n1)N(C1CCCC1)CC(F)(F)C(=O)N2C (centres unmarked) [Compound 148]
4. COc1cc(C(=O)NC2CCN(C(=O)CCCSc3cccc4c3C(=O)N(C3CCC(=O)NC3=O)C4=O)CC2)c(F)cc1Nc1ncc2c(n1)N(C1CCCC1)CC(F)(F)C(=O)N2C (centres unmarked) [Compound 42]

Reply:
1. < 400 nM
2. < 200 nM
3. < 50 nM
4. < 100 nM
